Data origin: patent US20210130452A1

# maps each entry to its koff
# measured.target: T1, human IL-17F (human, UniProt Q96PD4 31-163)
# T1 construct: made in Hek293 cells (GenBank AF384857); also called hIL-17F; hIL17F
# T1 sequence: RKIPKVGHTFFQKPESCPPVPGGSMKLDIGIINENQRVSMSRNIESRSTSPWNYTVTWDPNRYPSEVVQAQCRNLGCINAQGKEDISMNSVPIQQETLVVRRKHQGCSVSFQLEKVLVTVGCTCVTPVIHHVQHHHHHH
# assay.name: SPR (Biacore) off-rate
Only the number, expressed in s⁻¹, is required.

IL17MS3021 (VHH, variant of IL17MS13E02; Kabat numbering) VHH: EVQLVESGGGLVQPGGSLRLSCAASGRTYDAMGWLRQAPGKEREFVAAISGSGDDTYYADSVKGRFTISKDNSKITMYLQMNSLRPEDTAVYYCATRRGLYYVWDSNDYENWGQGTLVTVSS ... 0.00432
IL17MS3032 (VHH, variant of IL17MS13E02; Kabat numbering) VHH: EVQLVESGGGLVQPGGSLRLSCAASGRTYDAMGWLRQAPGKEREFVAAISGSGDDTYYADSVKGRFTISRDNSKNTMYLQMNSLRPEDTAVYYCATRRGLYYVWDSNDYENWGQGTLVTVSS ... 0.00083
IL17MS3037 (VHH, variant of IL17MS13E02; Kabat numbering) VHH: EVQLVESGGGLVQAGGSLRLSCAASGRTYDAMGWLRQAPGKEREFVAAISGSGDDTYYADSVKGRFTISKDNAGITMYLQMNSLKPEDTAVYYCATRRGLYYVWDANDYENWGQGTQVTVSS ... 0.00367

Request: Identify the reported koff for the following entry. IL17MS3038 (VHH, variant of IL17MS13E02; Kabat numbering) VHH: EVQLVESGGGLVQAGGSLRLSCAASGRTYDAVGWLRQAPGKEREFVAAISGSGDDTYYADSVKGRFTISKDNAGITMYLQMNSLKPEDTAVYYCATRRGLYYVWDSNDYENWGQGTQVTVSS
Response: 0.0101
